# SARS-CoV-2 infection rate annotations
test system: Vero E6 infected with SARS-CoV-2; assay: SARS-CoV-2 infection rate relative to infected DMSO; higher = more infection, active = 60 or less; settings: 24 h
Counter-ions that a name gives are not always drawn.
Number only, in %; omit the unit.

stdin: Report SARS-CoV-2 infection rate for CCOC(=O)c1c(/C(C#N)=C\N)c2ccc(Cl)c(Cl)c2n1C (10 µM) please.
stdout: 105

stdin: Report SARS-CoV-2 infection rate for COc1cccc2c1C(=O)c1c(O)c3c(c(O)c1C2=O)C[C@@](O)(C(=O)CO)C[C@@H]3O[C@H]1C[C@H](N)[C@@H](O)[C@H](C)O1 [Epirubicin Hydrochloride] (10 µM) please.
stdout: 108

stdin: Report SARS-CoV-2 infection rate for C#Cc1cncc([C@@H]2CCCN2C)c1 [altinicline] (10 µM) please.
stdout: 98.5

stdin: Report SARS-CoV-2 infection rate for C[C@]12N[C@H](Cc3ccccc31)c1ccccc12 [dizocilpine-(-)] (10 µM) please.
stdout: 106

stdin: Report SARS-CoV-2 infection rate for O=C(NCCNCC(O)COc1ccc(O)cc1)N1CCOCC1 (centres undefined) [xamoterol] (10 µM) please.
stdout: 110

stdin: Report SARS-CoV-2 infection rate for COc1cc2c(cc1OC)[C@@H](Cc1cc(OC)c(OC)c(OC)c1)[N+](C)(CCCOC(=O)CC/C=C/CCC(=O)OCCC[N+]1(C)CCc3cc(OC)c(OC)cc3[C@H]1Cc1cc(OC)c(OC)c(OC)c1)CC2 (some centres undefined) [mivacurium] (10 µM) please.
stdout: 104

stdin: Report SARS-CoV-2 infection rate for C=CCOc1ccccc1OCC(O)CNC(C)C (centres undefined) [oxprenolol] (10 µM) please.
stdout: 114

stdin: Report SARS-CoV-2 infection rate for Cc1cc(OCc2nc(-c3ccccc3Cl)cs2)ccc1OCC(=O)O [GPR120-modulator-1] (10 µM) please.
stdout: 100

stdin: Report SARS-CoV-2 infection rate for Cc1cc(C(=CNc2ccc(Cl)cc2)C(=O)Nc2ccc(Cl)cc2)on1 (10 µM) please.
stdout: 103

====

# inhibition of SARS-CoV-2 cytopathic effect annotations
test system: Vero E6 infected with SARS-CoV-2; experiment: inhibition of SARS-CoV-2 cytopathic effect; higher = more antiviral protection, active = above 15; details: 100 nM; 48 h
Number only, in %; omit the unit.

# example entries with known answers
INSERT INTO measurements (compound, units_label, result) VALUES
  ('O=c1c(-c2ccc(O)cc2)coc2cc(O)cc(O)c12', '%', 2.02),
  ('CCOC(=O)[C@@H](C)Oc1ccc(Oc2nc3ccc(Cl)cc3o2)cc1', '%', -2.57);

stdin: For the record C[C@]12CCC(=O)C=C1CC[C@@H]1[C@@H]2CC[C@@]2(C)[C@H]1CC[C@]2(C)O , what value of inhibition of SARS-CoV-2 cytopathic effect is listed for Vero E6 infected with SARS-CoV-2?
stdout: -0.05

stdin: For the record O=C([O-])C(O)[C@H](O)[C@@H](O)[C@H](O)[C@H](O)CO.O=C([O-])C(O)[C@H](O)[C@@H](O)[C@H](O)[C@H](O)CO.[Ca+2] (stereo not given in full) [calcium-gluceptate] , what value of inhibition of SARS-CoV-2 cytopathic effect is listed for Vero E6 infected with SARS-CoV-2?
stdout: -4.55

stdin: For the record CCN(CC)CCCCNc1ncc2cc(-c3c(Cl)cccc3Cl)c(NC(=O)NC(C)(C)C)nc2n1 , what value of inhibition of SARS-CoV-2 cytopathic effect is listed for Vero E6 infected with SARS-CoV-2?
stdout: 2.1

stdin: For the record CCC(CC)C(c1ccc(Nc2nc3ccccc3s2)cc1)n1cncn1 (stereo not given) , what value of inhibition of SARS-CoV-2 cytopathic effect is listed for Vero E6 infected with SARS-CoV-2?
stdout: 0.42

stdin: For the record CO[C@@H]1[C@@H](O[C@@H]2O[C@H](C)[C@@H](O[C@H]3C[C@@](C)(O)[C@@H](OC(=O)CC(C)C)[C@H](C)O3)[C@H](N(C)C)[C@H]2O)[C@@H](CC=O)C[C@@H](C)[C@@H](O)/C=C/C=C/C[C@@H](C)OC(=O)C[C@H]1OC(C)=O , what value of inhibition of SARS-CoV-2 cytopathic effect is listed for Vero E6 infected with SARS-CoV-2?
stdout: -2.91

stdin: For the record O=C(CCCCCCNC(=O)c1cnc(N(c2ccccc2)c2ccccc2)nc1)NO , what value of inhibition of SARS-CoV-2 cytopathic effect is listed for Vero E6 infected with SARS-CoV-2?
stdout: 2.13
